Molecular target: CDK2/Cyclin A (Homo sapiens, UniProt P24941)
Experiment: Inhibition of CDK2/Cyclin A Retinoblastoma Kinase Activity
Details: apparent Ki, CDK2/proteolyzed cyclin A, Rb fragment substrate, 25 μM ATP
Structures can show the parent of a compound that is named as a salt.
Some compounds, each annotated with its measured Ki.
Report only the number, with the unit nM understood.

Example results:
Nc1nc(NC2CCN(S(=O)(=O)c3ccc(OCCN4CCOCC4)nc3)CC2)sc1C(=O)c1c(F)cccc1F [Example H2, Hydrochloride] :: 2.8
Cc1ccccc1CNCCCS(=O)(=O)N1CCC(Nc2nc(N)c(C(=O)c3c(F)cccc3F)s2)CC1 :: 3.6

Reported Ki ( CN(C)[C@@H](Cc1ccccc1)C(=O)N1CCC(Nc2nc(N)c(C(=O)c3c(F)cccc3F)s2)CC1 ) = 2600

---

Some molecules, each annotated with its measured pKi.
Molecular target: CDK2/Cyclin A (Homo sapiens)
Experiment: Inhibition of CDK2/Cyclin A Retinoblastoma Kinase Activity
Conditions: apparent Ki, CDK2/proteolyzed cyclin A, Rb fragment substrate, 25 μM ATP
Structures can show the parent of a compound that is named as a salt.
Worth noting: pKi values are minus log10 of concentrations stated in mol/L.

Example results:
CC(CN(C)C)Oc1ccc(S(=O)(=O)N2CCC(Nc3nc(N)c(C(=O)c4c(F)cccc4F)s3)CC2)cn1 (racemic) [Example H13, Dihydrochloride] :: 8.96
COCCNCCS(=O)(=O)N1CCC(Nc2nc(N)c(C(=O)c3c(F)cccc3F)s2)CC1 [Example K25, Trifluoroacetic Acid Salt] :: 8.36
COC(=O)c1ccc(C(=O)N2CCC(Nc3nc(N)c(C(=O)c4c(F)cccc4F)s3)CC2)cc1 :: 7.09
CS(=O)(=O)N1CCCC(Nc2nc(N)c(C(=O)c3c(F)cccc3F)s2)C1 (stereo not shown) :: 6.37
Nc1nc(NC2CCN(S(=O)(=O)CCCN3CCOCC3)CC2)sc1C(=O)c1c(F)cccc1F :: 8.17
CC1(C)CCCN(CCCS(=O)(=O)N2CCC(Nc3nc(N)c(C(=O)c4c(F)cccc4F)s3)CC2)C1 :: 7.89

Reported pKi ( Nc1nc(NC2CCN(C(=O)c3ccno3)CC2)sc1C(=O)c1c(F)cccc1F ) = 7.41

---

Some compounds, each annotated with its measured CDK4 % Inhibition at 0.03 μM.
Target: human CDK4 and genetically truncated (1-264) cyclin D3 (Homo sapiens)
Sequence (P11802 whole entry, the tested form may be a part): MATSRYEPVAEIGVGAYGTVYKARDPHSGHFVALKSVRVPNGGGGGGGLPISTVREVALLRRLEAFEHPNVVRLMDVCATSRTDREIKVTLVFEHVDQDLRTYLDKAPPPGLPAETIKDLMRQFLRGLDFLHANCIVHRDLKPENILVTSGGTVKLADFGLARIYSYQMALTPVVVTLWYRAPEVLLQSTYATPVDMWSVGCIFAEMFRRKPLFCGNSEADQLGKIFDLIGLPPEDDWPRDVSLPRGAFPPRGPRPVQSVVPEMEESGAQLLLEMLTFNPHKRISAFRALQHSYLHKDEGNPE
Sequence (P30281 1-264 partner): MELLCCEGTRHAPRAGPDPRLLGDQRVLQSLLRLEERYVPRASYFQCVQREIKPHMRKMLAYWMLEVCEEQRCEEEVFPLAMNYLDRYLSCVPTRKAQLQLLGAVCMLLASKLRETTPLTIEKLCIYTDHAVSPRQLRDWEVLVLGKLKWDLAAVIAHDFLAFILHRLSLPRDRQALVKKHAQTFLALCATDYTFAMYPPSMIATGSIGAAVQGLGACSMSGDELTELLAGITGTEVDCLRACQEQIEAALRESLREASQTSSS
Assay: Inhibition of CDK4/Cyclin D Retinoblastoma Kinase Activity
Type: biochemical
Details: 0.03 μM compound; Table 3
Report only the number, with the unit % understood.

Nc1nc(NC2CCN(S(=O)(=O)CCc3cccc4ccccc34)CC2)sc1C(=O)c1c(F)cccc1F [Example P76] :: 33
Cc1cccc(S(=O)(=O)N2CCC(Nc3nc(N)c(C(=O)c4c(F)cccc4F)s3)CC2)c1 [Example P37] :: 65
N#Cc1c(Cl)cccc1Oc1ccc(S(=O)(=O)N2CCC(Nc3nc(N)c(C(=O)c4c(F)cccc4F)s3)CC2)cc1 [Example P52] :: 47

Could you now look at the following compound, please?
Reported CDK4 % Inhibition at 0.03 μM ( Nc1nc(NC2CCN(S(=O)(=O)c3cccc4cccnc34)CC2)sc1C(=O)c1c(F)cccc1F [Example P6] ) = 18

---

Some molecules, each annotated with its measured CDK2 % Inhibition at 0.03 μM.
Biological target: CDK2/Cyclin A (Homo sapiens)
Experiment: Inhibition of CDK2/Cyclin A Retinoblastoma Kinase Activity
Type: biochemical
Details: 0.03 μM compound; Table 4

Nc1nc(NC2CCN(C(=O)c3ccc(Cl)c(Cl)c3)CC2)sc1C(=O)c1c(F)cccc1F :: 33%
Nc1nc(NC2CCN(C(=O)c3cccc(C(F)(F)F)c3)CC2)sc1C(=O)c1c(F)cccc1F :: 31%
COC(=O)c1ccc(OC(=O)N2CCC(Nc3nc(N)c(C(=O)c4c(F)cccc4F)s3)CC2)cc1 :: 54%
Nc1nc(NC2CCN(C(=O)c3ccc(Cl)cc3)CC2)sc1C(=O)c1c(F)cccc1F :: 32%
CC(=O)Oc1ccccc1C(=O)N1CCC(Nc2nc(N)c(C(=O)c3c(F)cccc3F)s2)CC1 :: 59%

Reported CDK2 % Inhibition at 0.03 μM ( Nc1nc(NC2CCN(C(=O)OCC3c4ccccc4-c4ccccc43)CC2)sc1C(=O)c1c(F)cccc1F ) = −12%

Reported CDK2 % Inhibition at 0.03 μM ( CCCCc1ccc(C(=O)N2CCC(Nc3nc(N)c(C(=O)c4c(F)cccc4F)s3)CC2)cc1 ) = 16%

Reported CDK2 % Inhibition at 0.03 μM ( Nc1nc(NC2CCN(C(=O)c3cc([N+](=O)[O-])cc([N+](=O)[O-])c3)CC2)sc1C(=O)c1c(F)cccc1F ) = 19%

Source: patent US20050101595A1
